Details: buffer; pH 7.4; 200.0 µM
Provide the recorded solubility kinetic for the entries that follow.
Dear colleague, please return just the value in µg/mL, with no unit written.

Endpoint output: solubility kinetic of "Cc1nc(NC(=O)c2c(-c3ccccc3Cl)noc2C)sc1C" . Value?
13

// next record "COC(=O)c1ccccc1C(=O)N(c1ccccc1)c1ccccc1"
44.4

// next record "Nc1nonc1C(=O)NCCNc1ccc([N+](=O)[O-])cc1"
3.8

// next record "COCCCNC(=S)Nc1c(C)cc(C)cc1C"
37.2

----------
Conditions: buffer; pH 7.4; 200.0 µM
TEST_READOUT: log10 solubility kinetic (log10 of the value in µg/mL)
Answers are given as log10 of solubility kinetic in µg/mL.

Endpoint output: log10 solubility kinetic of "COC(=O)c1ccc2c(=O)n(-c3ccccc3F)c(=S)[nH]c2c1" . Value?
0.00

// next record Cc1ccc(NC(=O)CN2CCCC2c2cccn2C)cc1C (stereo not given)
1.63

// next record O=C(OC(C(=O)NC1CCCCC1)c1ccccc1F)c1ccco1 (stereo not given)
1.62

// next record "Cc1ccc(C(=O)N2CC=C(c3ccccc3)CC2)s1"
0.49

// next record "O=[N+]([O-])c1ccc(N2CCCC2)nc1"
1.43

// next record "Cc1ccc2cccc(OCc3ccc(Br)cc3)c2n1"
-0.05

// next record "N#Cc1cccnc1N1CCN(C(=O)c2ccccc2)CC1"
1.64

// next record C=CCC(C(=O)NC(C)c1ccccc1)C(=O)NC(C)c1ccccc1 (stereo not given)
1.22

// next record "COC(=O)c1cc(CNC(=O)Cc2ccsc2)ccc1OC"
1.68

// next record "O=C(CN1CCCC1)Nc1cc(C(F)(F)F)ccc1Cl"
1.26

// next record "Cc1cc(N2CCCC2)c(F)cc1/C=C\[N+](=O)[O-]"
-0.40

// next record "O=C(Nc1ccc(-c2ccccc2)cc1)c1ccco1"
1.35

// next record "COc1ccccc1CC(=O)N(Cc1ccccc1)c1cccc(C)c1"
0.95

// next record "O=C(CN1C(=O)c2ccccc2C1=O)Oc1ccc(Cl)cc1"
1.45

// next record "O=C(NCC1CCCCC1)c1cccnc1"
1.49

// next record "COc1ccc(NC(=O)c2ccc(NC(=O)CN3CCC(C(N)=O)CC3)cc2)cc1"
0.91

// next record "Cc1cc(C)c2c(CC(=O)NC(C)C)coc2c1"
0.98

// next record "CN(C)c1ccc(C(=S)N2CCCC2)cc1Br"
1.64

// next record "NC(=O)c1ccsc1NC(=O)COC(=O)c1cccnc1Cl"
0.67

// next record "Clc1cccc(N2CCN(c3ncnc4nc[nH]c34)CC2)c1"
-0.10

// next record "CCCOc1ccccc1/C=C1/C(=O)ON=C1C"
1.37

// next record "O=C(Oc1ccc(C(=S)N2CCOCC2)cc1)c1ccccc1[N+](=O)[O-]"
1.23

// next record "Cc1ccc(C(=O)Nc2ccc(S(=O)(=O)N3CCCC3)cc2)s1"
0.86

// next record CSc1ccc(CN(C)C(C)C(=O)NCC2CCCCC2)cc1 (stereo not given)
1.45

// next record "Brc1cnc2ccccc2c1N1CCCCC1"
0.08

// next record CCNC(=S)N1CCCCC1CO (stereo not given)
1.43

// next record "O=C(NCCN1CCCCC1)c1ccc(/C=N/O)nc1"
1.61

// next record "O=C(COC(=O)c1ccc(OC(F)(F)F)cc1)Nc1ncccn1"
1.00

// next record "C=CCSc1nc2c(c(-c3ccsc3)c1C#N)CN(C)CC2"
1.36

----------
Provide the recorded solubility kinetic for the entries that follow.
Conditions: buffer; pH 7.4; 200.0 µM
Dear colleague, please return just the value in µg/mL, with no unit written.

Endpoint output: solubility kinetic of "CCc1ccc(OCC(=O)Nc2ccncc2)c(Br)c1" . Value?
15.5

// next record "CC1=NCCN1S(=O)(=O)c1c(C(C)C)cc(C(C)C)cc1C(C)C"
16.8

// next record "CC(=O)Nc1ccc(S(=O)(=O)Nc2ccc3nc(C)sc3c2)cc1"
14.6

// next record "CSc1ccc(Cl)c(C(=O)Nc2ccc(Cl)cn2)c1"
0.5

// next record COc1ccc(NCC(O)Cn2c(C)c(C)c3ccccc32)cc1 (stereo not given)
10.2

// next record "CCOC(=O)c1ccc(N=C(C)c2c(O)[nH]c(=O)[nH]c2=O)cc1"
6.6

// next record "Cn1c(=O)cc(Nc2ccccc2)[nH]c1=O"
10.3

// next record CNc1snc(C)c1C(=O)OC(C)C(=O)Nc1ccccc1 (stereo not given)
34.5

// next record "Cc1ccc2c(C(=O)CCl)c(C)[nH]c2c1"
3.4

// next record "Cc1cc(C)c(C(=O)COC(=O)c2c(C)noc2C)cc1C"
7.1

// next record "Nc1cccc2c(=O)c3ccccc3[nH]c12"
5.6

// next record "CC(=O)Nc1ccc(SCc2ncc(-c3ccccc3)o2)cc1"
45.3

----------
Provide the recorded solubility kinetic for the entries that follow.
Conditions: buffer; pH 7.4; 200.0 µM
Dear colleague, please return just the value in µg/mL, with no unit written.

Endpoint output: solubility kinetic of "CCOc1ccccc1NC(=O)COC(=O)C1CCC1" . Value?
39.2

// next record "Cc1ccc(N=C2NC(=O)CS2)cc1C"
32.7

// next record "COc1ccc2oc(C(=O)N3CCN(S(=O)(=O)c4ccc(F)cc4)CC3)c(C)c2c1"
7.5

----------
Provide the recorded solubility kinetic for the entries that follow.
Details: buffer; pH 7.4; 200.0 µM
Dear colleague, please return just the value in µg/mL, with no unit written.

Endpoint output: solubility kinetic of "C=CCNC(=O)COc1cc(C)cc(C)c1C" . Value?
30.8

// next record "O=C1NC(=O)c2cc(Oc3ccc([N+](=O)[O-])cc3)ccc21"
2.5

// next record "CCn1c(SCc2cccc(F)c2)nc2c(c1=O)SCC2"
11.2

// next record "Cc1cc(C(=O)NC2CCCCC2)c2cc(F)ccc2n1"
19.6

// next record "COc1ccc(CNc2cc(C)ccn2)cc1"
17.4

// next record "NC(=O)c1cc([N+](=O)[O-])ccc1N1CCN(Cc2ccccc2)CC1"
23

----------
Provide the recorded solubility kinetic for the entries that follow.
Conditions: buffer; pH 7.4; 200.0 µM

Endpoint output: solubility kinetic of "c1ccc2oc(NC3=NCN(C4CCCCC4)CN3)nc2c1" . Value?
1.3 µg/mL

// next record CCn1cc(C(c2ccccc2)C(C(C)=O)[N+](=O)[O-])c2ccccc21 (stereo unspecified)
4.8 µg/mL

// next record "O=C(Nc1ccc(NC(=O)C2CC2)cc1)c1ccco1"
> 40.5 µg/mL

// next record O=C(NCC1CCCO1)c1ccc(F)c2ccccc12 (stereo unspecified)
> 41 µg/mL

// next record "O=C(NCCCl)Nc1ccccc1NS(=O)(=O)c1cccs1"
> 54 µg/mL

// next record Cc1ccccc1NC(=O)C1CC(=O)OC12CCOC(C)(C)C2 (stereo unspecified)
> 47.6 µg/mL

----------
Details: buffer; pH 7.4; 200.0 µM
TEST_READOUT: solubility kinetic (µg/mL)
Dear colleague, please return just the value in µg/mL, with no unit written.

Endpoint output: solubility kinetic of "Cc1nc(-c2cccc(Br)c2)ccc1C(=O)O" . Value?
43.2

// next record "c1ccc2c(-c3cncc4ccccc34)cncc2c1"
32.1

// next record "COc1ccc(NC(=O)CN2C(=O)NC3(CCCC3)C2=O)cc1"
40.1

----------
Conditions: buffer; pH 7.4; 200.0 µM
TEST_READOUT: solubility kinetic (µg/mL)
Dear colleague, please return just the value in µg/mL, with no unit written.

Endpoint output: solubility kinetic of "Cc1ccn2c(NC(=O)c3ccccc3)c(-c3ccccc3)nc2c1" . Value?
2

// next record "Cc1c(C(=O)N(C)Cc2nc3ccccc3c(=O)[nH]2)oc2ccccc12"
4.6

// next record "Cc1cc(/C=C(\C#N)C(=O)NCc2ccco2)c(C)n1-c1cccnc1"
10.7

----------
Provide the recorded solubility kinetic for the entries that follow.
Conditions: buffer; pH 7.4; 200.0 µM
Dear colleague, please return just the value in µg/mL, with no unit written.

Endpoint output: solubility kinetic of "CC(=O)c1ccc(NC(=O)CCOc2cc(C)ccc2C)cc1" . Value?
5

// next record "Cc1ccc(CNCCc2ccccc2F)s1"
33.2

// next record "CN(C)/C=C(\C=O)c1onc(-c2ccccc2Cl)c1C#N"
44.8

// next record CC(C)CC(NC(N)=O)C(=O)NCc1ccc(Cl)cc1 (configuration not stated)
35.3

// next record "Cc1ccccc1NC(=O)OCc1ccccc1"
23.7

----------
Provide the recorded solubility kinetic for the entries that follow.
Details: buffer; pH 7.4; 200.0 µM
Dear colleague, please return just the value in mg/mL, with no unit written.

Endpoint output: solubility kinetic of "O=C(Nc1cccc(S(=O)(=O)NC2=NCCC2)c1)c1ccc(C(F)(F)F)cc1" . Value?
0.0073

// next record "O=c1sc2ccccc2c(N2CCCCC2)c1[N+](=O)[O-]"
0.0204

// next record "O=C(Nc1cccc2ccccc12)c1ccc([N+](=O)[O-])cc1"
0.001

// next record "CCOC(=O)c1ccc2ncc(-c3ccccc3)nc2c1"
0.0003

// next record "COc1cc([N+](=O)[O-])cc2sc(NC(=O)C3CC3)nc12"
0.0006

// next record "CCc1noc(C)c1C(=O)Nc1ccc(C(F)(F)F)cc1"
0.0075

// next record "COc1ccc(NC(=O)c2cc(-c3ccco3)on2)cc1"
0.0008

// next record "COc1ccc(NC(=O)Nc2ccccn2)cc1OC"
0.0167

// next record COc1cccc(CN2C(=O)C(C)Oc3ccccc32)c1 (stereo not given)
0.0265

// next record "O=C(CCCCN1CCCCC1)c1ccccc1"
0.0318

// next record "Cc1ccc(OCC(=O)N2CCCCCCC2)cc1C"
0.0226

// next record "COc1ccccc1C/C(N)=N/OC(=O)c1cccs1"
0.0428

// next record "Cc1cc(=O)[nH]c(SCc2cccc3ccccc23)n1"
0.0235
